Values were extracted from patent US20210214758A1.

tested on: Klebsiella isolates; test: Antibiotic susceptibility of Klebsiella clinical isolates per 7-SNP clonotype (Lookup Table 1; disk diffusion); format: cell-based, Klebsiella spp.; conditions: CT 130
// boundary case: susceptibility, % equal to 70% maps to not satisfied; strictly smaller maps to satisfied

>  <molecular.string>
C[C@@H]1O[C@@H]1P(=O)(O)O

>  <measured.on>
Klebsiella isolates

>  <qualitative.label>
satisfied

$$$$
>  <molecular.string>
CC1(C)S[C@@H]2[C@H](NC(=O)[C@H](N)c3ccccc3)C(=O)N2[C@H]1C(=O)O

>  <measured.on>
Klebsiella isolates

>  <qualitative.label>
satisfied

$$$$
>  <molecular.string>
C[C@@H](O)[C@H]1C(=O)N2C(C(=O)O)=C(SCCN=CN)C[C@H]12

>  <measured.on>
Klebsiella isolates

>  <qualitative.label>
not satisfied

$$$$

Consider the additional compound presented here.
Prompt: Does the reported susceptibility, % of the following compound sit strictly below 70%? CN(C)[C@@H]1C(O)=C(C(N)=O)C(=O)[C@@]2(O)C(O)=C3C(=O)c4c(O)cccc4[C@@](C)(O)[C@H]3C[C@@H]12
Response: not satisfied

----------
test system: Klebsiella isolates; assay: Antibiotic susceptibility of Klebsiella clinical isolates per 7-SNP clonotype (Lookup Table 1; disk diffusion); assay type: cell-based, Klebsiella spp.; conditions: CT 141
Would you mind telling me the reported susceptibility, % of each entry?
Numbers only, in %.

Recorded susceptibility, %, per entry:
>  <molecular.string>
O=C1CN(/N=C/c2ccc([N+](=O)[O-])o2)C(=O)N1

>  <units.text>
%

>  <observed.result>
0

$$$$
>  <molecular.string>
C[C@@H]1O[C@@H]1P(=O)(O)O

>  <units.text>
%

>  <observed.result>
0

$$$$
>  <molecular.string>
C[C@@H](O)[C@H]1C(=O)N2C(C(=O)O)=C(SCCN=CN)C[C@H]12

>  <units.text>
%

>  <observed.result>
100

$$$$
>  <molecular.string>
CN(C)[C@@H]1C(O)=C(C(N)=O)C(=O)[C@@]2(O)C(O)=C3C(=O)c4c(O)cccc4[C@@](C)(O)[C@H]3C[C@@H]12

>  <units.text>
%

>  <observed.result>
100

$$$$

Next up:
Prompt: Provide measured susceptibility, % value, entry: CC1(C)S[C@@H]2[C@H](NC(=O)[C@H](N)c3ccccc3)C(=O)N2[C@H]1C(=O)O
Response: 0

----------
Could you please report measured susceptibility, % for the items listed next?
tested on: Klebsiella isolates; assay: Antibiotic susceptibility of Klebsiella clinical isolates per 7-SNP clonotype (Lookup Table 1; disk diffusion); type: cell-based, Klebsiella spp.; settings: CT 271
Give bare numbers, in %.

>  <molecular.string>
C[C@@H]1O[C@@H]1P(=O)(O)O

>  <units.text>
%

>  <susceptibility, %>
38

$$$$

Count: 4. Required value per item: susceptibility, %.
1. C[C@@H](O)[C@H]1C(=O)N2C(C(=O)O)=C(SCCN=CN)C[C@H]12
2. O=C1CN(/N=C/c2ccc([N+](=O)[O-])o2)C(=O)N1
3. CC1(C)S[C@@H]2[C@H](NC(=O)[C@H](N)c3ccccc3)C(=O)N2[C@H]1C(=O)O
4. CN(C)[C@@H]1C(O)=C(C(N)=O)C(=O)[C@@]2(O)C(O)=C3C(=O)c4c(O)cccc4[C@@](C)(O)[C@H]3C[C@@H]12

Response:
1: 100; 2: 50; 3: 0; 4: 79
